# test-protocol: CCTE_Shafer_MEA_acute_synchrony_index: CCTE's Neural Acute Assay for Synchrony, Shafer Lab (AID 2284027);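 also: network synchrony index of spontaneous spiking in primary rat cortical neurons on MEAs; fitted for loss of signal so actives lower synchrony relative to DMSO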
Calls of active or inactive are those of the source. The calls were made as follows: active = hit-call score of the fitted dose curve at least 0.9, where 1 is the maximum; inactive = score below 0.9.
Tick one outcome: active, inactive

Worked examples, 2 molecules total:
{"molecule": "CCCCC(CC)CN1C(=O)C2C3C=CC(C3)C2C1=O (stereo not drawn)", "assigned-label": "active"}
{"molecule": "COC(=O)c1ccccc1C(=O)O", "assigned-label": "inactive"}

Query :: Can you look up the reported call for "O=C(O)c1ccccc1" for me?
Result :: inactive

----------
# test-protocol: CEETOX_H295R_OHPROG: CeeTox H295R High-throughput Steroidogenesis Assay for OH-Progesterone (OHPROG) (AID 2283435)
# experimental-parameters: actives raise or lower the signal
The source made the active and inactive calls. The calls were made as follows: active = hit-call score of the fitted dose curve at least 0.9, where 1 is the maximum; inactive = score below 0.9.
Tick one outcome: active, inactive

Worked examples, 2 molecules total:
{"cpd-smiles": "C#CCOC(=O)[C@@H](C)Oc1ccc(Oc2ncc(Cl)cc2F)cc1", "assigned-label": "active"}
{"cpd-smiles": "C#C[C@]1(O)CC[C@H]2[C@@H]3CCC4=CC(=O)CC[C@@H]4[C@H]3CC[C@@]21CC", "assigned-label": "inactive"}

Shift focus to the following entry.
Query :: Can you look up the reported call for "CC(=O)S[C@@H]1CC2=CC(=O)CC[C@]2(C)[C@H]2CC[C@@]3(C)[C@@H](CC[C@@]34CCC(=O)O4)[C@H]12" for me?
Result :: inactive

----------
# Read-out: Tissue plasminogen activator (tPA), PLAT (gene 5327)
# test-protocol: BSK_BE3C_tPA: BioMAP Diversity Plus: BE3C Assay for Tissue plasminogen activator (tPA) Biomarker Activity (AID 2283041);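 also: tPA level quantified by ELISA one day after compound addition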
# experimental-parameters: primary human bronchial epithelial cells; actives raise or lower the signal
Active and inactive are the calls of the source. The calls were made as follows: active = hit-call score of the fitted dose curve at least 0.9, where 1 is the maximum; inactive = score below 0.9.
Tick one outcome: active, inactive

Worked examples, 5 compounds total:
{"compound": "CCNc1nc(N)nc(Cl)n1", "assigned-label": "inactive"}
{"compound": "CCCCC(CC)CN1C(=O)C2C3C=CC(C3)C2C1=O (stereo not given)", "assigned-label": "inactive"}
{"compound": "CCCCCOC(=O)COc1cc(N2C(=O)C3=C(CCCC3)C2=O)c(F)cc1Cl", "assigned-label": "inactive"}
{"compound": "CCOC(=O)c1ccc(O)cc1", "assigned-label": "inactive"}
{"compound": "CCN(CC)C(=O)c1cccc(C)c1", "assigned-label": "inactive"}

Query :: Can you look up the reported call for "O=C(O)C1(C(=O)Nc2ccc(Cl)cc2Cl)CC1" for me?
Result :: inactive

----------
# Read-out: Peroxisomal acyl-coenzyme A oxidase 1 (ACOX1) gene, ACOX1 (gene 51)
# test-protocol: LTEA_HepaRG_ACOX1: Life Technologies and Expression Analysis (LTEA) Assay for Peroxisomal acyl-coenzyme A oxidase 1 (ACOX1) gene using HepaRG (AID 2283467)
# experimental-parameters: mRNA level, 48 h; actives raise or lower the signal
Activity calls are given as the source filed them. The calls were made as follows: active = hit-call score of the fitted dose curve at least 0.9, where 1 is the maximum; inactive = score below 0.9.
Tick one outcome: t (active), f (inactive)

Worked examples, 5 molecules total:
{"molecule": "CCCCOC(=O)C(C)Oc1ccc(Oc2ccc(C(F)(F)F)cn2)cc1 (stereo not drawn)", "assigned-label": "f"}
{"molecule": "O=C(c1ccc(O)cc1O)c1ccc(O)cc1O", "assigned-label": "f"}
{"molecule": "CN(C)C(=O)Nc1ccc(Cl)c(Cl)c1", "assigned-label": "f"}
{"molecule": "CC(C)(C)[C@@H](O)[C@@H](Cc1ccc(Cl)cc1)n1cncn1", "assigned-label": "f"}
{"molecule": "C#C[C@]1(O)CC[C@H]2[C@@H]3CCC4=CC(=O)CC[C@@H]4[C@H]3CC[C@@]21CC", "assigned-label": "f"}

Shift focus to the following entry.
Query :: Can you look up the reported call for "CCCOC(=O)c1ccc(C(=O)OCCC)nc1" for me?
Result :: f
